TESTED SYSTEM: Left-right determination factor 2 (Homo sapiens) (UniProt O00292)
Sequence (O00292 whole entry, looked up): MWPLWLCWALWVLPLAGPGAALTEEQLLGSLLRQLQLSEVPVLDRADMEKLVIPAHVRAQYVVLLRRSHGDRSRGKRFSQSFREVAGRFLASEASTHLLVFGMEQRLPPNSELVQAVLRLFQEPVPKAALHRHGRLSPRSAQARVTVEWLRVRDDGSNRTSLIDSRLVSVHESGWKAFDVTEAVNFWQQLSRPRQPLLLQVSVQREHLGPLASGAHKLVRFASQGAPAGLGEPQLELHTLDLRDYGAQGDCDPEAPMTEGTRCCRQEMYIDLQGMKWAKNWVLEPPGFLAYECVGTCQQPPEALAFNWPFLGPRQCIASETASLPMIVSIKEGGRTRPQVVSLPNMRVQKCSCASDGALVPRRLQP
EXPERIMENT DESCRIPTION: LEFTY2 binders on small-molecule microarrays, primary screen, biochemical, small-molecule microarray, 635 nm fluorescence scan (AID 1110)
CONDITION NOTES: LEFTY2 binding, higher = more signal
MEASURED ATTRIBUTE: composite z-score
Lab note: write the figure by itself, no unit.

| COMPOUND | composite z-score |
| --- | --- |
| COc1cc2c(cc1O)C(c1ccc(CN3CCCC3)cc1)N(Cc1cccc(OC(F)(F)F)c1)CC2 (configuration not stated) | 0.629 |
| O=C1C2C=CC(C(O)c3cccc(O)c3)N(Nc3ccccc3F)C2C(=O)N1c1ccccc1 (configuration not stated) | -0.31 |
| COCCCNC(=O)[C@@H]1c2ccccc2C(=O)N(C2CCCCC2)[C@H]1c1ccc(CO)cc1 | -1.22 |

Fill blank: measured composite z-score of the compound CCOC(=O)C1=CC[C@@H](c2ccc(F)cc2)N(S(=O)(=O)c2ccc(C)cc2)[C@H]1c1ccc([N+](=O)[O-])cc1 is ____.
-0.248

Same question, CC(C)C[C@@H]1NC(=O)[C@@H]2C[C@H](C(=O)O)[C@H](c3ccc(O)cc3)N2C1=O this time
0.695

Another compound to look at: C=CCC(OC(C)=O)[C@@H]1[C@@H](N(Cc2cccc3ccccc23)C(=O)c2ccc(-c3ccccc3)cc2)c2cc(OCCCO)ccc2N1C(=O)c1ccc2ccccc2n1 (some centres not stated)
0.258

----------
TESTED SYSTEM: Streptavidin (Streptomyces avidinii)
EXPERIMENT DESCRIPTION: streptavidin binders on small-molecule microarray, primary screen, artefact control for SMM compound annotation, biophysical, 635/667 nm fluorescence (AID 1147);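 further: signal reflects streptavidin binding to arrayed compounds as a control protein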
CONDITION NOTES: streptavidin binding, higher = more signal
Bucketed by reported composite z-score, buckets being LOW: < -0.2; MID: ≥ -0.2 and < 0.3; HIGH: ≥ 0.3

| COMPOUND | LABEL VALUE |
| --- | --- |
| C=CCC(OC(C)=O)[C@@H]1[C@@H](N(Cc2cc3ccccc3o2)C(=O)c2cccc3ccccc23)c2cc(OCCCO)ccc2N1C(=O)c1ccc2ccccc2c1 (stereo partly drawn) | MID |

Returns: class label. Input: CCOC(=O)C1=CC[C@@H](c2ccccc2)N(S(=O)(=O)c2ccc(C)cc2)[C@H]1C#N
HIGH

Consider next the compound O=C1OCCC=C[C@H]2OC34C=CCN(CCN5CCOCC5)C(=O)[C@H]3N(CCCO)C(=O)[C@@H]4C12 (stereo partly drawn) in the same way.
LOW

Try the compound COc1ccc([Si](C)(C)[C@@H]2[C@@H](CC(=O)N(CCO)Cc3ccccc3)O[C@]3(C(=O)N(Cc4ccc(N5CCC5=O)cc4)c4ccccc43)[C@H]2C)cc1
LOW

Also COCCCN1C(=O)[C@@]2(Cc3ccccc31)c1ccccc1C(=O)N(Cc1ccccc1OC)[C@H]2c1ccc(CO)cc1 ?
MID

Further, for CCOC(=O)C[C@H]1[C@H](OC(=O)c2cc3ccccc3oc2=O)[C@@H](NC(=O)C2CCCCC2)c2cc(OCCCO)ccc2N1C(=O)Cc1ccc(OC)cc1 ?
MID

----------
EXPERIMENT DESCRIPTION: basal RPMI8226 viability, no added stimulus, profiling panel, cell-based, calcein-AM fluorescence, 48 h, PK04 Diversity Set (AID 1166);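 further: cells grown under basal conditions without added stimulus; test concentration not given here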
CONDITION NOTES: RPMI8226 myeloma viability, higher = more signal
One threshold, -0.5, splits the recorded z-score values: lower ones are YES, equal or higher ones are NO.

For orientation, consider the following solved cases.
| COMPOUND | LABEL VALUE |
| --- | --- |
| [N-]=[N+]=NCc1ccccc1C[C@]1(C(=O)O)COC(c2ccc(OCCCO)cc2)=N1 | NO |
| CCC(CC)C(O)C1C=CC2C(=O)N(C)C(=O)C2N1N1CCCCC1 (stereo not drawn) | YES |
| NC(=O)NCC#Cc1ccc2c(c1)[C@]1(C(=O)N2)[C@H](C(=O)Nc2nc3ccccc3s2)[C@H]2C(=O)O[C@H](c3ccccc3)[C@H](c3ccccc3)N2[C@@H]1c1ccc(OCCO)cc1 | NO |
| COCCOC(=O)N1C(=O)[C@@]2(c3cc(C#CC4(O)CCCCCC4)ccc31)[C@H](c1ccccc1OCCO)N1[C@H](c3ccccc3)[C@H](c3ccccc3)OC(=O)[C@H]1[C@@H]2C(=O)N1CCCCCCC1 | YES |
| COCCOC(=O)N1C(=O)[C@@]2(c3ccccc31)[C@H](c1ccc(OCCO)cc1)N1[C@H](c3ccccc3)[C@H](c3ccccc3)OC(=O)[C@H]1[C@@H]2C(=O)N1CCN(c2ncccn2)CC1 | YES |

Threshold test, z-score < -0.5: CC(C)CNC(=O)[C@@H]1c2ccccc2C(=O)N(Cc2ccccc2)[C@H]1c1ccc(CO)cc1
NO

Input CC(C)C[C@@H]1NC(=O)[C@@H]2C[C@H](C(=O)NCCCC[N+](C)(C)C)[C@H](c3ccc(O)cc3)N2C1=O
NO

Please give the result for COCCOC(=O)N1C(=O)[C@@]2(c3cc(C#CCCO)ccc31)[C@H](c1ccccc1OCCO)N1[C@H](c3ccccc3)[C@H](c3ccccc3)OC(=O)[C@H]1[C@@H]2C(=O)N1CCc2cc(OC)c(OC)cc2C1 too.
NO

Same read-out for [N-]=[N+]=NCc1ccccc1[C@H]1OC(c2ccc(OCCCO)cc2)=N[C@@]1(Cc1ccccc1)C(=O)N1CCOCC1 ?
YES

And the next one, COc1ccc([Si](C)(C)[C@@H]2[C@@H](CCO)O[C@]3(C(=O)N(Cc4ccccc4)c4ccc(N5C(=O)c6ccccc6Oc6ccccc65)cc43)[C@H]2C)cc1 ?
YES

And CC(C)N1CC=CC23O[C@@H]4C=CCCOC(=O)C4[C@H]2C(=O)N(CCCCCO)[C@@H]3C1=O (stereo partly drawn) ?
NO

Lookup C=CCC(OC(C)=O)[C@@H]1[C@@H](N(Cc2cc3ccccc3o2)C(=O)Cc2ccc(OC)cc2)c2cc(OCCCO)ccc2N1C(=O)Cc1ccc(OC)cc1 (stereo partly drawn)
YES

Same read-out for COC(=O)[C@@]1(CCS(=O)(=O)c2ccccc2)N=C(c2ccc(OCCCO)cc2)O[C@H]1c1ccccc1N=[N+]=[N-] ?
NO

Please do the same for CN(C)C(=O)[C@]1(Cc2ccccc2CN=[N+]=[N-])N=C(c2ccc(OCCCO)cc2)O[C@@H]1c1ccccc1N=[N+]=[N-] as well.
YES

Please answer likewise for Cc1ccccc1C(O)C1C=CC2C(=O)N(c3ccccc3)C(=O)C2N1Nc1ccccc1F (stereo not drawn)
YES

----------
Tested on: Sam68 (KHDRBS1)
EXPERIMENT DESCRIPTION: Sam68 small-molecule binders, primary screen, biochemical, small-molecule microarray, 635 nm fluorescence (AID 1125);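 further: score merges 667 nm channel intensity with signal to noise over triplicate slides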
CONDITION NOTES: small-molecule microarray binding, higher = more signal
The following compounds are shown together with reported composite z-score values.
Answer using only a numeral; do not append any unit.

| COMPOUND | composite z-score |
| --- | --- |
| [N-]=[N+]=NCc1ccccc1[C@H]1OC(c2ccc(OCCCO)cc2)=N[C@@]1(Cc1ccccc1)C(=O)N1CCOCC1 | 1.3 |

Query the reported composite z-score for Sam68 (KHDRBS1); item: COc1ccc(C(O)C2C=CC3C(=O)N(C)C(=O)C3N2Nc2ccc([N+](=O)[O-])cc2[N+](=O)[O-])cc1OCc1ccccc1 (stereo not given)
1.32

Next: O=C1c2ccccc2[C@](Cc2ccccc2I)(C(=O)O)[C@H](c2ccc(CO)cc2)N1Cc1ccccc1
1.25

----------
TESTED SYSTEM: Concanavalin-A (Canavalia ensiformis) (UniProt P02866)
Sequence (P02866 whole entry, looked up): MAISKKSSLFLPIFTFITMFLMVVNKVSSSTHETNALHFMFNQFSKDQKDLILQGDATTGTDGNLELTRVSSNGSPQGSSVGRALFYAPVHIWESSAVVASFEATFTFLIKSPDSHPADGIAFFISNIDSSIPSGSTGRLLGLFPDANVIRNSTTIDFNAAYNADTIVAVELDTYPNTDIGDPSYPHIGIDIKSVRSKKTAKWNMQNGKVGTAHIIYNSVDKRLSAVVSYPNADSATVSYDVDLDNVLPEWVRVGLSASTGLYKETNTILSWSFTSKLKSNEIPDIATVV
EXPERIMENT DESCRIPTION: ConA small-molecule binders, primary screen, artefact control for SMM control protein annotation, biochemical, small-molecule microarray, Alexa647 label, 635 nm (AID 1127);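 further: z combines 667 nm emission intensity with signal-to-noise across three replicate slides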
CONDITION NOTES: ConA-A647 binding fluorescence, higher = more signal
As shown below, each of these compounds has a reported composite z-score value.

Below, 5 compounds whose answers are already recorded.
| COMPOUND | composite z-score |
| --- | --- |
| COc1ccc(CCNC(=O)[C@@]2(Sc3ccc(C)cc3)CC(=O)N(C(C)C)[C@@H]2c2ccc(CO)cc2)cc1 | -0.277 |
| C=CC(CO)NC(=O)OCC1c2ccccc2-c2ccccc21 (stereo unspecified) | 0.47 |
| C=CCOC(=O)[C@@H]1[C@H]2C(=O)O[C@H](c3ccccc3)[C@H](c3ccccc3)N2[C@H](c2ccc(OCCOC(=O)[C@H]3C[C@H]4C(=O)NCC(=O)N4[C@H]3c3ccc(O)cc3)cc2)[C@@]12C(=O)Nc1ccc(I)cc12 | 1.16 |
| Cc1ccccc1C(O)C1C=CC2C(=O)N(c3ccccc3)C(=O)C2N1Nc1ccccc1F (stereo unspecified) | 1.09 |
| COc1ccc(C#Cc2ccc3c(c2)[C@]2(C(=O)N3)[C@H](c3ccc(OCCO)cc3)N3[C@H](c4ccccc4)[C@H](c4ccccc4)OC(=O)[C@H]3[C@@H]2C(=O)O)cc1 | 0.761 |

Can you look up the measured composite z-score of O=C1O[C@@H](c2ccccc2)[C@@H](c2ccccc2)N2[C@@H](c3ccc(O)cc3)[C@]3(C(=O)Nc4ccc(C#CC5=CCCCC5)cc43)[C@@H](C(=O)N3CCCCCCC3)[C@H]12 for me?
0.702
